Below: a set of entries, each annotated with reported growth.
- System: LOX IMVI melanoma
- procedureDetails: NCI-60 one-dose screen, 48 h (100 = growth as untreated, 0 = no growth, -100 = all killed)
- measurementConditions: 10 µM unless noted
This is part of a sample that, as a whole, favours compounds with a hit. Of some 83,000 tested, about 20% had one in any assay. Active and inactive are the calls of the source. The calls were made as follows: active = growth percent below 10; inactive = the rest.

q: State the recorded growth for this entry: `C=C1C(=O)O[C@H]2[C@H]1CC/C(COC(=O)CSCSCC(=O)OC/C1=C/CC[C@@]3(C)O[C@H]3[C@H]3OC(=O)C(=C)[C@@H]3CC1)=C\CC[C@@]1(C)O[C@@H]21`
a: -48.5% (active)

q: State the recorded growth for this entry: `CCOC(=O)c1ccccc1-c1c2ccc(=[N+](C)C)cc-2oc2cc(N(C)C)ccc12`
a: 94.6% (inactive)

q: State the recorded growth for this entry: `CCN(CC)CCCN1C(=O)c2c(c(C)c3c(oc4ccc(OC)cc43)c2C)C1=O`
a: 96.9% (inactive)

// next item, growth requested
q: State the recorded growth for this entry: `Nc1ccc(-c2csc(-n3[nH]c(=O)ccc3=O)n2)cc1`
a: 102% (inactive)
